Biological target: T1, human CD81 mutant L165A (human, UniProt P60033 1-236, limits assumed)
T1 construct: as m30; not shown: C-terminal V5 and 6xHis tags
T1 sequence: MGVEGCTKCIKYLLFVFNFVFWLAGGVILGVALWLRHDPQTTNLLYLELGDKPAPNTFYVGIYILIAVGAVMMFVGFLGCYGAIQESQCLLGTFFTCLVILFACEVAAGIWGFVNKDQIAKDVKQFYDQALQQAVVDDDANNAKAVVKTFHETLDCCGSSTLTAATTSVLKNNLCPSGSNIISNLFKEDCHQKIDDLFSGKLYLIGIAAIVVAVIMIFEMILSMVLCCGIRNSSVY
Test: ELISA
Measured Parameter: relative binding affinity

003-D07 (antibody, human IgG4 S228P, lambda, V domains shown, IgG4 S228P) VH: EVQLLESGGGLVQPGGSLRLSCAASGFTFSSNYMSWVRQAPGKGLEWVSYISSSSTYTDYADSVKGRFTISRDNSKNTLYLQMNSLRAEDTAVYYCARYSYDRDNFDYWGQGTLVTVSS VL: QSVLTQPFSASGTPGQRVTISCTGSTSNIGAGYDTHWYQHLPGTAPKLLIYGNSNRPSGVPDRFSGSKSGTSASLAISGLRSEDEADYYCQSYDTNLSVWVFGGGTKLTVLG :: < 20%

*Q* Request the reported relative binding affinity associated with 002-C09 (antibody, human IgG4 S228P, lambda, V domains shown, IgG4 S228P) VH: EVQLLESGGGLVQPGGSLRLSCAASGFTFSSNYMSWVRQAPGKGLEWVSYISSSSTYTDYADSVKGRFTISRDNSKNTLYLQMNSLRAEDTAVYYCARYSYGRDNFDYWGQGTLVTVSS VL: QSVLTQPASASGTPGQRVTISCTGSTSNIGAGYGTHWYQRLPGTAPKLLIYGNSNRPSGVPDRFSGSKSGTSASLAISGLRSEDEADYYCQSYDTNLSGWVFGGGTKLTVLG
*A* < 20%

*Q* Can you handle 002-A07 S115A (antibody, human IgG4 S228P, lambda, V domains shown, IgG4 S228P; glycosylation site mutant of 002-A07 VL) VH: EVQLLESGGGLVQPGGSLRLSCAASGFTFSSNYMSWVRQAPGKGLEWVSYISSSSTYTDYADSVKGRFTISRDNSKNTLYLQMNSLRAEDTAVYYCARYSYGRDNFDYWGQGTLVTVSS VL: QSVLTQPPSASGTPGQRVTISCTGSTSNIGAGYDTHWYQQLPGTAPKLLIYGNSNRPSGVPDRFSGSKSGTSASLAISGLRSEDEADYYCQSYDTNLAVWVFGGGTKLTVLG next?
*A* < 20%
